Emax overview
# ASSAY SYSTEM: human MC3R (Homo sapiens)
# Construct: expressed in transfected cells; host or cells: HEK-293 cells stably expressing the GScAMP22F split-luciferase cAMP sensor (parent reporter line from Promega); MC3R clone generated in-house, G418 selection
# Sequence (P41968 whole entry): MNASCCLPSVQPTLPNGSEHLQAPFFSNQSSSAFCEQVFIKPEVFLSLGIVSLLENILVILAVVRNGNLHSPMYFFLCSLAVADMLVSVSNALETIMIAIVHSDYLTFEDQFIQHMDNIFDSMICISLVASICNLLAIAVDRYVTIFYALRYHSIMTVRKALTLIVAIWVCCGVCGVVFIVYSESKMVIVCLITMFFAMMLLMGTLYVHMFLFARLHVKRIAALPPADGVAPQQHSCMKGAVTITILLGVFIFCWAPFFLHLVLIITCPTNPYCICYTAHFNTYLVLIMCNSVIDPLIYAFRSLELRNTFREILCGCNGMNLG
# ASSAY EXPLANATION: split-luciferase cAMP sensor assay, agonist mode (measurement window 1), hMC3R
# Assay type: cell-based
# TEST SETTINGS: agonist mode, hMC3R stable cell line; read-out: MC3R cAMP % max activation
# Protocol: The stable cell lines were grown and maintained in selection media consisting of Dulbecco's modified Eagle media (DMEM) with 4.5 g/l D-glucose, and 4 mM L-glutamine (Thermo Fisher Scientific, Waltham, MA), supplemented with 10% fetal bovine serum, 100 units/ml penicillin, 100 μg/ml streptomycin, 2.5 μg/ml amphotericin B, 200 μg/ml hygromycin B (for positive selection of the GScAMP22f luciferase reporter), and Geneticin™ (G418) 700 μg/ml (for MC3R or MC4R selection). […]
Positions of bridges follow the written chain, without caps; N, C: chain ends. Non-standard residues stand in square brackets, D forms with d. Residues, ends and D or L forms follow the SMILES beside them. dPhe(4-Br) = N[C@H](Cc1ccc(Br)cc1)C(=O)O; dAbu = CC[C@@H](N)C(=O)O
ASSAY READOUT: Emax (%)

{"MOLECULE": "CC(=O)N[C@@H](CCCNC(=N)N)C(=O)N[C@H]1CSSC[C@@H](C(N)=O)NC(=O)[C@@H](Cc2c[nH]c3ccccc23)NC(=O)[C@H](CCCNC(=N)N)NC(=O)[C@@H](Cc2ccc(Br)cc2)NC(=O)[C@H](CCCNC(=N)N)NC(=O)[C@@H](C)NC1=O [CTX-1214] (Ac-RC[dA]R[dPhe(4-Br)]R[dW]C-NH2; disulfide 2-8 (inferred))", "ASSAY SYSTEM": "human MC3R (Homo sapiens)", "ASSAY READOUT": "Emax", "OBSERVED RESULT": 15}
{"MOLECULE": "CC[C@H]1NC(=O)[C@@H](NC(=O)[C@H](CCCNC(=N)N)NC(C)=O)CSSC[C@@H](C(N)=O)NC(=O)[C@@H](Cc2c[nH]c3ccccc23)NC(=O)[C@H](CCCNC(=N)N)NC(=O)[C@@H](Cc2ccc(Br)cc2)NC(=O)[C@H](CCCNC(=N)N)NC1=O [CTX-1247] (Ac-RC[dAbu]R[dPhe(4-Br)]R[dW]C-NH2; disulfide 2-8 (inferred))", "ASSAY SYSTEM": "human MC3R (Homo sapiens)", "ASSAY READOUT": "Emax", "OBSERVED RESULT": 13}
{"MOLECULE": "CC(=O)N[C@@H](CCCNC(=N)N)C(=O)N[C@H]1CSSC[C@@H](C(N)=O)NC(=O)[C@H](Cc2c[nH]c3ccccc23)NC(=O)[C@H](CCCNC(=N)N)NC(=O)[C@@H](Cc2ccc(Br)cc2)NC(=O)[C@H](CCCNC(=N)N)NC(=O)[C@@H](C)NC1=O [CTX-2205] (Ac-RC[dA]R[dPhe(4-Br)]RWC-NH2; disulfide 2-8)", "ASSAY SYSTEM": "human MC3R (Homo sapiens)", "ASSAY READOUT": "Emax", "OBSERVED RESULT": 13}
